- Test system: CREB-binding protein/Histone acetyltransferase p300/Cellular tumor antigen p53 (Homo sapiens), P04637+Q09472+Q92793 [Y220C]
- Experiment: AceTAC activity at FLAG-tagged p53Y220C mutant (unknown origin ) expressed in human NCI-H1299 cells expressing p300/CBP assessed as increase in p53 acetylation at lysine 382 residue at 1 uM incubated for 24 hrs by western blot analysis
- Format: cell-based
Active and inactive are the calls of the source. No cut-off for these calls is given here.
Quantity Measured: Activity

>>> value("CCn1c2ccc(CNCCOCCC(=O)NCCOc3ccc(CCc4nc5cc(-c6c(C)noc6C)ccc5n4CCN4CCOCC4)cc3F)cc2c2ccc(-c3cc(C)cs3)cc21")
"Active"
>>> value("CCn1c2ccc(CNCCCCC(=O)NCCOc3ccc(CCc4nc5cc(-c6c(C)noc6C)ccc5n4CCN4CCOCC4)cc3F)cc2c2ccc(-c3cc(C)cs3)cc21")
"Active"
>>> value("CCn1c2ccc(CNCCCCCCCCC(=O)NCCOc3ccc(CCc4nc5cc(-c6c(C)noc6C)ccc5n4CCN4CCOCC4)cc3F)cc2c2ccc(-c3cc(C)cs3)cc21")
"Active"
